Sequence of the target: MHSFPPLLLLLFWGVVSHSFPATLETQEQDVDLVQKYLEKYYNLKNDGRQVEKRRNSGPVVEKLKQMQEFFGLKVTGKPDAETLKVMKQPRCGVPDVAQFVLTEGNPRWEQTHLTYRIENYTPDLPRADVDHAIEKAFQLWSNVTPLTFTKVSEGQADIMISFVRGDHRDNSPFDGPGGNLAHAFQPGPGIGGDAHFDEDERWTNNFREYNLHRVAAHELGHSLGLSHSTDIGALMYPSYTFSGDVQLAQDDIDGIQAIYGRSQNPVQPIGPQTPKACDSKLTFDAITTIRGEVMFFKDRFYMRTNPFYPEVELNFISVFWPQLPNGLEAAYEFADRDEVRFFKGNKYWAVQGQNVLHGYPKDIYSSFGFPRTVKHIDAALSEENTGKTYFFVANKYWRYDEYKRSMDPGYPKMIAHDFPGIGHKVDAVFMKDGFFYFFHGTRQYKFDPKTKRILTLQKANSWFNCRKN
READOUT_LABEL: IC50 (µM)
Give just the numeric value; µM need not be written.

Past entries and their recorded results:
Query: Fill in the blank: the reported IC50 of COc1ccc(S(=O)(=O)N2CCCN(C(=O)c3ccccc3-c3ccccc3)CC2C(=O)NO)cc1 (centres undefined) is ____.
Result: 0.116

Query: Fill in the blank: the reported IC50 of COc1ccc(S(=O)(=O)N2CCCN(C(=O)Nc3ccccc3)CC2C(=O)NO)cc1 (centres undefined) is ____.
Result: 0.309

Query: Fill in the blank: the reported IC50 of O=C(NO)C1CN(C(=O)c2ccccc2)CCCN1S(=O)(=O)c1ccc(Oc2ccccc2)cc1 (centres undefined) is ____.
Result: 0.022

Query: Fill in the blank: the reported IC50 of COc1ccc(S(=O)(=O)N2CCCN(Cc3ccccc3)CC2C(=O)NO)cc1 (centres undefined) is ____.
Result: 0.445

---
Query: Fill in the blank: the reported IC50 of COc1ccc(S(=O)(=O)N2CCCN(C(=O)C(C)(C)C)CC2C(=O)NO)cc1 (centres undefined) is ____.
Result: 0.251

Query: Fill in the blank: the reported IC50 of COc1ccc(S(=O)(=O)N2CCCN(C(=O)OC(C)(C)C)CC2C(=O)NO)cc1 (centres undefined) is ____.
Result: 0.618

Origin of values: ChEMBL document CHEMBL1130592
